test system: HCC2157 (Breast Carcinoma); assay: combination Emax (second highest fraction inhibited in the dose matrix, 72 h); higher = more inhibition; extreme values may be limits of the assay
Recorded measurements of combination Emax, one per entry
property.label: combination Emax

molecule	property.label	assay.result
CCc1c2c(nc3ccc(O)cc13)-c1cc3c(c(=O)n1C2)COC(=O)[C@]3(O)CC [SN-38] + CN(C)CCCOc1ccc(-c2ccc3ncc4c(c3c2)n(C2CCOCC2)c(=O)n4C)cn1 [AZD0156] (first compound max 0.3 µM, 7x7, partner max 1 µM)	combination Emax	0.969
CC(=O)Nc1cccc(-n2c(=O)n(C3CC3)c(=O)c3c(Nc4ccc(I)cc4F)n(C)c(=O)c(C)c32)c1 [Trametinib] + Cc1nc(-c2cn3c(n2)-c2ccc(-c4cnn(C(C)(C)C(N)=O)c4)cc2OCC3)n(C(C)C)n1 [Taselisib] (first compound max 1 µM, 7x7, partner max 10 µM)	combination Emax	1
COc1cccc(OCCCN)c1-c1cc(Nc2cnc(C#N)cn2)n[nH]1 [Prexasertib] + Cc1cc2ncnn2cc1Nc1ncc2c(n1)n(C1CCOCC1)c(=O)n2C [AZD7648] (first compound max 1 µM, 7x7, partner max 10 µM)	combination Emax	0.958
CS(=O)(=O)CCNCc1ccc(-c2ccc3ncnc(Nc4ccc(OCc5cccc(F)c5)c(Cl)c4)c3c2)o1 [Lapatinib] + C[C@@H](Oc1cc(-c2cnn(C3CCNCC3)c2)cnc1N)c1c(Cl)ccc(F)c1Cl [Crizotinib] (first compound max 10 µM, 7x7, partner max 10 µM)	combination Emax	1

----------
tested on: J82 (Bladder Carcinoma); assay: Bliss excess, mean over the matrix (fraction); higher = more synergy
Consider the following compounds and their measured Bliss excess readings.

compound	Bliss excess
Cc1c2c(nn1C)CSCc1cc(n(C)n1)CSc1cc(c3ccccc3c1)OCCCc1c(C(=O)O)n(C)c3c-2c(Cl)ccc13 [AZD5991] + C=CCn1c(=O)c2cnc(Nc3ccc(N4CCN(C)CC4)cc3)nc2n1-c1cccc(C(C)(C)O)n1 [AZD1775] (first compound max 1 µM, partner max 1 µM)	-0.0372
C=CCn1c(=O)c2cnc(Nc3ccc(N4CCN(C)CC4)cc3)nc2n1-c1cccc(C(C)(C)O)n1 [AZD1775] + C1CN(CCC1(C(=O)N[C@@H](CCO)C2=CC=C(C=C2)Cl)N)C3=NC=NC4=C3C=CN4 [Capivasertib] (first compound max 3 µM, partner max 3 µM)	-0.0184

----------
Quick reference for Bliss excess among some compounds
test system: DB (B-Cell Non-Hodgkin's Lymphoma); assay: Bliss excess, mean over the matrix (fraction); higher = more synergy

compound	Bliss excess
Cc1cc2ncnn2cc1Nc1ncc2c(n1)n(C1CCOCC1)c(=O)n2C [AZD7648] + C=CCn1c(=O)c2cnc(Nc3ccc(N4CCN(C)CC4)cc3)nc2n1-c1cccc(C(C)(C)O)n1 [AZD1775] (first compound max 10 µM, partner max 1 µM)	-0.0984
CS(=O)(=O)CCNCc1ccc(-c2ccc3ncnc(Nc4ccc(OCc5cccc(F)c5)c(Cl)c4)c3c2)o1 [Lapatinib] + Cn1cnc2c(F)c(Nc3ccc(Br)cc3Cl)c(C(=O)NOCCO)cc21 [Selumetinib] (first compound max 10 µM, 7x7, partner max 10 µM)	0.0388
COc1cccc(OCCCN)c1-c1cc(Nc2cnc(C#N)cn2)n[nH]1 [Prexasertib] + CN(C)CCCOc1ccc(-c2ccc3ncc4c(c3c2)n(C2CCOCC2)c(=O)n4C)cn1 [AZD0156] (first compound max 1 µM, 7x7, partner max 1 µM)	0.0289
CCN(CCO)CCCOc1ccc2c(Nc3cc(CC(=O)Nc4cccc(F)c4)[nH]n3)ncnc2c1 [AZD2811] + C[C@@H]1COCCN1C2=NC(=NC(=C2)C3(CC3)[S@](=N)(=O)C)C4=C5C=CNC5=NC=C4 [AZD6738] (first compound max 1 µM, 7x7, partner max 10 µM)	-0.0302

----------
system: HT-29 (Colorectal Carcinoma); experiment: combination Emax (second highest fraction inhibited in the dose matrix, 72 h); higher = more inhibition; extreme values may be limits of the assay
Recorded combination Emax by entry
property.label: combination Emax

compound	assay.result
Cc1cc2ncnn2cc1Nc1ncc2c(n1)n(C1CCOCC1)c(=O)n2C [AZD7648] + O=C(c1cc(Cc2n[nH]c(=O)c3ccccc23)ccc1F)N1CCN(C(=O)C2CC2)CC1 [Olaparib] (first compound max 10 µM, 7x7, partner max 10 µM)	0.0989
C=CCn1c(=O)c2cnc(Nc3ccc(N4CCN(C)CC4)cc3)nc2n1-c1cccc(C(C)(C)O)n1 [AZD1775] + Nc1ccn([C@@H]2O[C@H](CO)[C@@H](O)C2(F)F)c(=O)n1 [Gemcitabine] (first compound max 1 µM, partner max 0.3 µM)	0.884
Cc1c2c(nn1C)CSCc1cc(n(C)n1)CSc1cc(c3ccccc3c1)OCCCc1c(C(=O)O)n(C)c3c-2c(Cl)ccc13 [AZD5991] + CC1(C)CCC(CN2CCN(c3ccc(C(=O)NS(=O)(=O)c4ccc(NCC5CCOCC5)c([N+](=O)[O-])c4)c(Oc4cnc5[nH]ccc5c4)c3)CC2)=C(c2ccc(Cl)cc2)C1 [Venetoclax] (first compound max 1 µM, 7x7, partner max 1 µM)	0.189

----------
tested on: KM-H2 (Hodgkin's Lymphoma); experiment: Bliss excess, mean over the matrix (fraction); higher = more synergy

molecule	test.system	Bliss excess
CN(CCO)CC[C@H](CSc1ccccc1)Nc1ccc(S(=O)(=O)NC(=O)c2ccc(N3CCC([C@@H](O)c4ccccc4-c4ccc(Cl)cc4)CC3)cc2)cc1S(=O)(=O)C(F)(F)F [AZD4320] + C=CCn1c(=O)c2cnc(Nc3ccc(N4CCN(C)CC4)cc3)nc2n1-c1cccc(C(C)(C)O)n1 [AZD1775] (first compound max 1 µM, partner max 1 µM)	KM-H2 (Hodgkin's Lymphoma)	-0.006
Cc1cc2ncnn2cc1Nc1ncc2c(n1)n(C1CCOCC1)c(=O)n2C [AZD7648] + C=CCn1c(=O)c2cnc(Nc3ccc(N4CCN(C)CC4)cc3)nc2n1-c1cccc(C(C)(C)O)n1 [AZD1775] (first compound max 10 µM, partner max 1 µM)	KM-H2 (Hodgkin's Lymphoma)	-0.0201
COc1cccc2c1C(=O)c1c(O)c3c(c(O)c1C2=O)C[C@@](O)(C(=O)CO)C[C@@H]3O[C@H]1C[C@H](N)[C@H](O)[C@H](C)O1 [Doxorubicin] + Cc1cc2ncnn2cc1Nc1ncc2c(n1)n(C1CCOCC1)c(=O)n2C [AZD7648] (first compound max 1 µM, 7x7, partner max 10 µM)	KM-H2 (Hodgkin's Lymphoma)	0.116
C=CCn1c(=O)c2cnc(Nc3ccc(N4CCN(C)CC4)cc3)nc2n1-c1cccc(C(C)(C)O)n1 [AZD1775] + C[C@@H]1COCCN1C2=NC(=NC(=C2)C3(CC3)[S@](=N)(=O)C)C4=C5C=CNC5=NC=C4 [AZD6738] (first compound max 1 µM, partner max 10 µM)	KM-H2 (Hodgkin's Lymphoma)	0.0647

----------
test system: EM-2 (Chronic Myelogenous Leukemia); assay: combination Emax (second highest fraction inhibited in the dose matrix, 72 h); higher = more inhibition; extreme values may be limits of the assay

molecule	combination Emax
Cc1c2c(nn1C)CSCc1cc(n(C)n1)CSc1cc(c3ccccc3c1)OCCCc1c(C(=O)O)n(C)c3c-2c(Cl)ccc13 [AZD5991] + C=CCn1c(=O)c2cnc(Nc3ccc(N4CCN(C)CC4)cc3)nc2n1-c1cccc(C(C)(C)O)n1 [AZD1775] (first compound max 1 µM, partner max 1 µM)	0.983
COc1nnc2ccc(N3CCC(c4ccc(OCCN5CCN(C)C(=O)[C@H]5C)cc4)CC3)nn12 [AZD5153] + CC1(C)CCC(CN2CCN(c3ccc(C(=O)NS(=O)(=O)c4ccc(NCC5CCOCC5)c([N+](=O)[O-])c4)c(Oc4cnc5[nH]ccc5c4)c3)CC2)=C(c2ccc(Cl)cc2)C1 [Venetoclax] (first compound max 1 µM, 7x7, partner max 1 µM)	0.918
CC1(C)CCC(CN2CCN(c3ccc(C(=O)NS(=O)(=O)c4ccc(NCC5CCOCC5)c([N+](=O)[O-])c4)c(Oc4cnc5[nH]ccc5c4)c3)CC2)=C(c2ccc(Cl)cc2)C1 [Venetoclax] + C=CCn1c(=O)c2cnc(Nc3ccc(N4CCN(C)CC4)cc3)nc2n1-c1cccc(C(C)(C)O)n1 [AZD1775] (first compound max 1 µM, partner max 1 µM)	0.949
COc1cc2ncnc(Nc3ccc(F)c(Cl)c3)c2cc1OCCCN1CCOCC1 [Gefitinib] + CC(C)n1c(=O)n(C)c2cnc3cc(F)c(-c4ccc(OCCCN5CCCCC5)nc4)cc3c21 [AZD1390] (first compound max 10 µM, 7x7, partner max 0.3 µM)	0.174
C=CCn1c(=O)c2cnc(Nc3ccc(N4CCN(C)CC4)cc3)nc2n1-c1cccc(C(C)(C)O)n1 [AZD1775] + C[C@@H]1COCCN1C2=NC(=NC(=C2)C3(CC3)[S@](=N)(=O)C)C4=C5C=CNC5=NC=C4 [AZD6738] (first compound max 1 µM, partner max 10 µM)	0.977
Cn1cnc2c(F)c(Nc3ccc(Br)cc3Cl)c(C(=O)NOCCO)cc21 [Selumetinib] + CCN(CCO)CCCOc1ccc2c(Nc3cc(CC(=O)Nc4cccc(F)c4)[nH]n3)ncnc2c1 [AZD2811] (first compound max 10 µM, 7x7, partner max 1 µM)	0.88
CC1(C)CCC(CN2CCN(c3ccc(C(=O)NS(=O)(=O)c4ccc(NCC5CCOCC5)c([N+](=O)[O-])c4)c(Oc4cnc5[nH]ccc5c4)c3)CC2)=C(c2ccc(Cl)cc2)C1 [Venetoclax] + Cn1cnc2c(F)c(Nc3ccc(Br)cc3Cl)c(C(=O)NOCCO)cc21 [Selumetinib] (first compound max 1 µM, 7x7, partner max 3 µM)	0.424
